// values below are reported IRF reporter
System: RAW-Dual (murine macrophage reporter line)
Experiment: IRF reporter (Lucia luciferase) activity fold change vs agonist alone; higher = enhanced IRF activity
Settings: modulator concentration 10 µM; agonist: MPLA […]
Enter the number alone.

# example entries with known answers
compound=COc1ccccc1C(=O)Nc1ccc(Nc2ccc(-n3cccn3)nn2)cc1 endpoint_name="IRF reporter" test_value=1.11
compound=Cl.O=C1NCC2(CCN(CCc3ccccc3)CC2)O1 endpoint_name="IRF reporter" test_value=1.78

// query Quick check: IRF reporter of "O=Cc1cn(CCOc2ccc(Cl)cc2)c2ccccc12" ?
// result 0.613

// query What do you have for Cc1ccc(C(=O)NC(Oc2ccc3ccccc3c2)C(Br)(Br)Br)cc1 (stereo not given) ?
// result 1.27

// query What do you have for "COc1ccc(CNCc2cccc3ccccc23)cc1" ?
// result 1.31

// query What do you have for "COc1cccc(-c2ccc(NC(=O)C3=C(C(=O)O)CCC3)c(F)c2)c1" ?
// result 1.38

// query What do you have for CCOC(=O)N(CC(=O)OC)CP(=O)(O)C(Cc1ccccc1)C(=O)O (stereo not given) ?
// result 1.07

// query What do you have for CC1CN(C2=NC(=O)C(=Cc3ccc(-c4ccccc4Cl)o3)S2)CC(C)O1 (stereo not given) ?
// result 1.44

// query What do you have for "O=C(Nc1ccc(S(=O)(=O)Nc2nccs2)cc1)c1c(F)cccc1F" ?
// result 1.14

// query What do you have for "CN(C)CCN(Cc1ccccc1)Cc1cc(Cl)cc(Cl)c1O" ?
// result 1.32

// query What do you have for "CNC(=O)c1ccc(Nc2ncc(C(F)(F)F)c(NCc3nccnc3N(C)S(C)(=O)=O)n2)cc1" ?
// result 0.0361

// query What do you have for "Cc1cccc(C(C)C)c1NC(=O)c1ccccc1Br" ?
// result 1.14

// query What do you have for "O=[N+]([O-])c1ccc2nc(Cl)sc2c1" ?
// result 0.0921

// query What do you have for NC(=O)CN1C(=O)C2C3c4ccccc4C(c4ccccc43)C2C1=O (stereo not given) ?
// result 0.976

Ref: the supplement of paper PMC10646978
